Measurement Target: T1, full-length recombinant human PAD4 (human, UniProt Q9UM07 1-663)
T1 construct: Full-length recombinant; also called peptidylarginine deiminase 4
T1 sequence (Q9UM07 whole entry): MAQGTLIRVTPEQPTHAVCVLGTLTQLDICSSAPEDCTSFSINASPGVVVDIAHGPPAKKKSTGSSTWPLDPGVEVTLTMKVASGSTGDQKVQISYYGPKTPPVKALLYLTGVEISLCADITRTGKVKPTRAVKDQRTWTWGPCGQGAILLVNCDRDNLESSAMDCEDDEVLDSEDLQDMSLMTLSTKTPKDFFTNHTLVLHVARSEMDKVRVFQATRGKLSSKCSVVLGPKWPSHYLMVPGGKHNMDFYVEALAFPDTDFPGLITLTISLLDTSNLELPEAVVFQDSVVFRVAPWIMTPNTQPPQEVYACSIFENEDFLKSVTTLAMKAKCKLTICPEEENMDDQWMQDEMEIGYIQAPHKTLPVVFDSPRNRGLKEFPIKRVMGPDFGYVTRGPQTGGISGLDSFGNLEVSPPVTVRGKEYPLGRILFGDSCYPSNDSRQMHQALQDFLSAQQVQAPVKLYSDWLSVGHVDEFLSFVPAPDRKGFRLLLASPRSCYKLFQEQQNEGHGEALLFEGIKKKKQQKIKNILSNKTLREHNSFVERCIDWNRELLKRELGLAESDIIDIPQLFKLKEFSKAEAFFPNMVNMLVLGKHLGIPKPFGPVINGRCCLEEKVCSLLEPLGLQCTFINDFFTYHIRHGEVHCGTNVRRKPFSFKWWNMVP
Test Method Notes: ELISA, immobilized human PAD4
Experimental Endpoint: O.D. 490/630 at 0.25 µg/mL
Form: value (number only, do not type unit).

Please review the following examples before continuing.
humanized anti-PAD4 antibody derived from G8, VH H4.32 / VL L4.00 (antibody, IgG1, V domains shown, IgG1 kappa; also called G8 H4.32/L4.00) VH: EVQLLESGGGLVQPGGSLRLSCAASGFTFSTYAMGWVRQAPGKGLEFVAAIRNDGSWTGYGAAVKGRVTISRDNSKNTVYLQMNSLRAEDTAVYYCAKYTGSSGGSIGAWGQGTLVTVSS VL: SYELTQPPSVSVSPGQTARITCSGGNRNYYYGWYQQKPGQAPVLVIYANDKRPSGIPERFSGSSSGTTVTLTISGVQAEDEADYYCGTADTGKYVFGGGTKLTVLG	1.84
humanized anti-PAD4 antibody derived from H7, VH H4.15 / VL L4.06 (antibody, IgG1, V domains shown, IgG1 kappa; also called H7 H4.15/L4.06) VH: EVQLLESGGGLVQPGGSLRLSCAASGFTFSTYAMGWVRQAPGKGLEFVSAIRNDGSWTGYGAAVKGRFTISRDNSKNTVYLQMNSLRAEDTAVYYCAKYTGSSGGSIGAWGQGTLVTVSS VL: SYELTQPPSVSVSPGQTARITCSGGSGRYYYGWYQQKPGQAPVTVIYSSTHRPSGIPERFSGSYSGNTTTLTISGVQAEDEADYYCGTADSSSYVFGGGTKLTVLG	1.82

Now for the binder whose O.D. 490/630 at 0.25 µg/mL we want.
Exam item: // Input: humanized anti-PAD4 antibody derived from H7, VH H4.15 / VL L4.17 (antibody, IgG1, V domains shown, IgG1 kappa; also called H7 H4.15/L4.17) VH: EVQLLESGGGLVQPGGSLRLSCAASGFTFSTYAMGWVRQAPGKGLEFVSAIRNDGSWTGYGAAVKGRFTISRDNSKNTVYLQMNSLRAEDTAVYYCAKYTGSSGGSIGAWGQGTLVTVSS VL: SYELTQPPSVSVSPGQTARITCSGGSGRYYYGWYQQKPGQAPVTVIYSSTHRPSGIPERFSGSTSGNTTTLTISGVQAEDEADYYCGTADSSSYVFGGGTKLTVLG . Output its O.D. 490/630 at 0.25 µg/mL only.
Marked response: 1.81
